For each entry below, report its Urea value.
Tested on: ICR (CD-1) mice
Test: In vivo toxicity in mice (SC, IN, IP routes)
Parameters: unit not given here
Details: serum; SC, 3 doses (1hr, 12hr, 24hr); head doses: RN7-IN10, RN7-IN8 20 mg/kg; RN7-IN9, RN7-IN6 10 mg/kg; day 7; mean±SD, 4 mice
Quick one: just the number, no unit, thanks!

Qu. Please indicate Urea recorded for FLGGLIKKWPWWPWRR-NH2 [RN7-IN9, hybrid peptide of ranalexin (residues 1-7) and indolicidin (residues 5-13)]
Ans. 8.84

Qu. Tell me measured Urea for FLGGLIKWWPWRR-NH2 [RN7-IN6, hybrid peptide of ranalexin (residues 1-7) and indolicidin (residues 8-13)] please.
Ans. 9.07

Qu. Determine from records and report Urea for FLGGLIKWPWWPWRR-NH2 [RN7-IN8, hybrid peptide of ranalexin (residues 1-7) and indolicidin (residues 6-13)]
Ans. 9.61

Qu. Dear colleague, please send me the reported Urea for FLGGLIKWKWPWWPWRR-NH2 [RN7-IN10, hybrid peptide of ranalexin (residues 1-7) and indolicidin (residues 4-13)] when you can.
Ans. 9.2
